Molecular target: human BTK (Homo sapiens (Human), UniProt Q06187)
Sequence (Q06187 whole entry): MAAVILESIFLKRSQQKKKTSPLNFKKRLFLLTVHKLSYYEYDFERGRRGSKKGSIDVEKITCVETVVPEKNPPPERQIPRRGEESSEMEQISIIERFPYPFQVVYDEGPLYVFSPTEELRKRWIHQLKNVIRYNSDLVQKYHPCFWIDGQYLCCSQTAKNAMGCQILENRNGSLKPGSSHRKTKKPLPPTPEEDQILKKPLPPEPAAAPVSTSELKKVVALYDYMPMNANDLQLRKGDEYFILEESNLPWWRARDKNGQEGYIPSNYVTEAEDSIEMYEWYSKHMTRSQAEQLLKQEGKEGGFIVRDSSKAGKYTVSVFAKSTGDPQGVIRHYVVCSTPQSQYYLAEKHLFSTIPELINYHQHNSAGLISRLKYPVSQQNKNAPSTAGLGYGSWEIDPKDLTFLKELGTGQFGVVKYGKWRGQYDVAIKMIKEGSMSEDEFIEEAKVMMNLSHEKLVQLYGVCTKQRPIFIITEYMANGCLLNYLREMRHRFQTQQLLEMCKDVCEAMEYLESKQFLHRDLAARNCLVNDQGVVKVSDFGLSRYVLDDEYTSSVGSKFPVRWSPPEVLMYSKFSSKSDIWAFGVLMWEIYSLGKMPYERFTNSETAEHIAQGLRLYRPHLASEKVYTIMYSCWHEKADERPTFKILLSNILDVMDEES
Assay: BTK kinase inhibitory activity, ADP Glo kinase assay
Conditions: read-out: BTK IC50; recombinant purified human BTK, ATP 10 uM, Poly(Glu4,Tyr1) peptide, 1 hour 30° C.
Provide the reported IC50 of each item.
// return numeric value only (unit: nM, not printed)

Find IC50 (human BTK (Homo sapiens (Human), UniProt Q06187)) for the entry C=CC(=O)N1CC[C@@H](F)[C@@H](Oc2nc(Nc3cnn(C4CC4)c3)nc3[nH]ccc23)C1 [Example 8]
1.4

What reported IC50 corresponds to C=CC(=O)N1CC[C@@H](F)[C@@H](Oc2nc(Nc3cnn(CC(F)F)c3)nc3[nH]ccc23)C1 [Example 6] on human BTK (Homo sapiens (Human), UniProt Q06187)?
1.5

Entry C=CC(=O)N1CC[C@@H](F)[C@@H](Oc2nc(Nc3cnn(CC)c3)nc3[nH]cc(F)c23)C1 [Example 27] , system human BTK (Homo sapiens (Human), UniProt Q06187): what IC50 was measured?
2.5

So what IC50 did C=CC(=O)N1CC[C@@H](F)[C@@H](Oc2nc(Nc3cnn(CC)c3)nc3[nH]cc(C)c23)C1 [Example 19] get with human BTK (Homo sapiens (Human), UniProt Q06187)?
3.4

---

Molecular target: human BTK (Homo sapiens (Human), UniProt Q06187)
Test: BTK kinase inhibitory activity, ADP Glo kinase assay
Conditions: read-out: BTK IC50; recombinant purified human BTK, ATP 10 uM, Poly(Glu4,Tyr1) peptide, 1 hour 30° C.
Classify: Satisfied when IC50 is strictly less than 2 nM; Not satisfied when IC50 is not.

Given C=CC(=O)N1CC[C@@H](F)[C@@H](Oc2nc(Nc3cc(C)ns3)nc3[nH]ccc23)C1 , is recorded IC50 strictly lower than 2 nM?
Satisfied

Would you kindly verify if IC50 of C=CC(=O)N1CC[C@@H](F)[C@@H](Oc2nc(Nc3cnn(CCO)c3)nc3[nH]ccc23)C1 is strictly less than 2 nM?
Not satisfied

Check if IC50 falls below 2 nM for C=CC(=O)N1CC[C@@H](F)[C@@H](Oc2nc(Nc3cnn(C4CC4)c3)nc3[nH]cc(C)c23)C1 .
Not satisfied

Given the entry C=CC(=O)N1CC[C@@H](F)[C@@H](Oc2nc(Nc3cc(C)ns3)nc3[nH]cc(C)c23)C1 , would its reported IC50 be below 2 nM?
Satisfied

Threshold test, IC50 < 2 nM: C=CC(=O)N1CC[C@H](F)[C@H](Oc2nc(Nc3ccc4ncsc4c3)nc3[nH]ccc23)C1
Not satisfied

Regarding C=CC(=O)N1CC[C@@H](F)[C@@H](Oc2nc(Nc3cnn(CC)c3)nc3[nH]ccc23)C1 , kindly confirm whether its IC50 is beneath 2 nM.
Satisfied

---

Target: human BTK (Homo sapiens (Human), UniProt Q06187)
Assay: BTK kinase inhibitory activity, ADP Glo kinase assay
Give measured pIC50 for each item. Keep answers brief.
The scale used: pIC50 is minus the common logarithm of the concentration in molar units.

Which measured pIC50 value corresponds to C=CC(=O)N1CC[C@H](F)[C@H](Oc2nc(Nc3cnn(CC(F)F)c3)nc3[nH]cc(C)c23)C1 (racemic) ?
8.15

// lookup pIC50 for C=CC(=O)N1CC[C@@H](F)[C@H](Oc2nc(Nc3cnn(C4CC4)c3)nc3[nH]cc(C#N)c23)C1 (racemic)
8.96

Bench note: what pIC50 did C=CC(=O)N1CC[C@@H](F)[C@H](Oc2nc(Nc3cnn(CC(F)F)c3)nc3[nH]ccc23)C1 (racemic) show?
8.60

For the compound shown here, C=CC(=O)N1CC[C@@H](F)[C@H](Oc2nc(Nc3cnn(CC)c3)nc3[nH]cc(C#N)c23)C1 (racemic) , give the reported pIC50.
8.89
